The measured values listed here are drawn from patent US20230391826A1.

Target: EphA2 endogenously expressed on PC3 prostate cancer cells (UniProt P29317 24-976, limits assumed)
Sequence (P29317 24-976 limits assumed): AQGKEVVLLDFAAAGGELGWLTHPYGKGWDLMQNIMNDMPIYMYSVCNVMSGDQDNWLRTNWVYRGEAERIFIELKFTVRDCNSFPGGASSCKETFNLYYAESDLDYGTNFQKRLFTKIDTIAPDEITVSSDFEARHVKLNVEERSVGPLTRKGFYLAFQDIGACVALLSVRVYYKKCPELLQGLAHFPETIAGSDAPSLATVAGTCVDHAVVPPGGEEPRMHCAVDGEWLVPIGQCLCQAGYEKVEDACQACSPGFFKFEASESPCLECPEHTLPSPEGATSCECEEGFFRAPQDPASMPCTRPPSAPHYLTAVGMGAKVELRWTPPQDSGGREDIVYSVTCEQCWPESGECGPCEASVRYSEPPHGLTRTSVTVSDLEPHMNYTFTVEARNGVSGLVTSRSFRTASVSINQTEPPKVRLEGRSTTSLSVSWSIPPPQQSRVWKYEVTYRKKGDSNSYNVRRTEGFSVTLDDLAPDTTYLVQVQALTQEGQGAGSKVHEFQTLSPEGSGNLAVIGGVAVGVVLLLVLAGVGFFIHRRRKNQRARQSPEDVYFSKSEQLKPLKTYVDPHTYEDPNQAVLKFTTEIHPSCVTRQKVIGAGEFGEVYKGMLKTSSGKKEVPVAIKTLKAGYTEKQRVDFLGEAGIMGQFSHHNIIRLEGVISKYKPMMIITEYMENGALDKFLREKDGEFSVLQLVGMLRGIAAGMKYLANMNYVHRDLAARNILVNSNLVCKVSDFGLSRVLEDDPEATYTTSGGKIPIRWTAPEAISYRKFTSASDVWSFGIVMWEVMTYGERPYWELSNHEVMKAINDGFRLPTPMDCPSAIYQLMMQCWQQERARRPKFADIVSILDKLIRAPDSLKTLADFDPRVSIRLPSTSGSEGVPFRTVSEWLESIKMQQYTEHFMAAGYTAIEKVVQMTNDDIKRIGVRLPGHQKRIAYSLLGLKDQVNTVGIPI
Experiment: cell-based or functional assay
Where no end group is shown, it is not given here. [ ]: non-standard residue; d: D form. βAla = NCCC(=O)O
Sorting guide: entries reporting IC50 PAKT beneath 0.07 nM go in the y pile, the rest go in the n pile.

| binder | class |
| --- | --- |
| [βAla]WLAYPDSVPYRPKC (also: homodimer, disulfide at 15, other end not in the chain, C-terminally disulfide-linked homodimer made from monomer (19*); also called dimer (2); dimeric peptide (2)) [βA-WLA-YRPKC dimer (C-ter)] | n |
| CGAWLAYPDSVPYRPK-NH2 (also: homodimer: N-terminal Cys of two chains joined by disulfide) [CGA-WLA-YRPKam dimer (N-ter)] | y |
| Lys-linked dimer (C-ter) (also: bond at chain A 15 to a chain's C-terminus) peptide 1: [βAla]WLAYPDSVPYRPKK peptide 2: [βAla]WLAYPDSVPYRPK | n |

Consider the additional binder presented here.
Bench note: check whether Click dimer (N-ter) (not fully specified; propargylglycine (Pra) at position 1, joined by a click linkage to KN3 of the other chain; C-terminal amide; azido-lysine (KN3) at position 1, joined by a click linkage to Pra of the other chain; C-terminal amide) peptide 1: KAWLAYPDSVPYRPK peptide 2: XGAWLAYPDSVPYRPK shows IC50 PAKT below 0.07 nM
y
